Tested on: Sodium/Iodide Symporter (NIS), SLC5A5 (gene 6528)
Test: CPHEA_Stoker_NIS_Inhibition_RAIU: CPHEA's Radioactive Iodide Uptake (RAIU) Assay for Sodium/Iodide Symporter (NIS) Inhibition, Stoker and Laws Labs (AID 2283841)
Inconclusive results are not listed. The source made the active and inactive calls. Rule for the calls: active = hit-call score of the fitted dose curve at least 0.9, where 1 is the maximum; inconclusive = response in the unintended direction; inactive = score below 0.9.
Write down the outcome that applies. Available outcomes: active, inactive

Exercise: Entry CC(C)N(C(=O)SCC(Cl)=C(Cl)Cl)C(C)C : call = ?
Solution: active

Exercise: Status in this test for CCCSP(=O)(OCC)Oc1ccc(Br)cc1Cl (stereo not drawn) ?
Solution: inactive

Exercise: For this compound, state the assay outcome: CCCCSP(=O)(SCCCC)SCCCC
Solution: inactive
